biological target: IDH1^R132C (Homo sapiens, UniProt O75874, R132C); experiment: NADPH depletion assay, IDH1 R132C
Sequence (O75874 whole entry R132C): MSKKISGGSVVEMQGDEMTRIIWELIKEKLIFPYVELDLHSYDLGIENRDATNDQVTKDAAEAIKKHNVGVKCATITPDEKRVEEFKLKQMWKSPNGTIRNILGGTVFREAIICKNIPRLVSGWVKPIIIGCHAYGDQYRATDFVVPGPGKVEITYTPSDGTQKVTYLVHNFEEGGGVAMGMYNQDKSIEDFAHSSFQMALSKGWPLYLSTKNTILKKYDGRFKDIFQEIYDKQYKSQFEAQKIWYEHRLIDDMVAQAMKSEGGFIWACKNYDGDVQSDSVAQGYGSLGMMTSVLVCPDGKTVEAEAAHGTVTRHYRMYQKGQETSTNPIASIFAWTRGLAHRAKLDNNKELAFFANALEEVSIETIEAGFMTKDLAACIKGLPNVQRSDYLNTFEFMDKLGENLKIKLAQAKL
Could you mark each record satisfied if its IC50 falls strictly under 40 nM, and not satisfied if it equals or exceeds it?

Regarding C[C@H](Nc1ncc2ccc(=O)n(Cc3ccc(OC(F)(F)F)cc3)c2n1)c1ccc(Cl)cc1 , kindly confirm whether its IC50 is beneath 40 nM.
not satisfied

Regarding C=CC(=O)N1CCN([C@@H](CC2CC2)c2ccc([C@H](C)Nc3cc4c(ccc(=O)n4C(C)C)cn3)cc2)CC1 , kindly confirm whether its IC50 is beneath 40 nM.
satisfied

Regarding C=CC(=O)N1CCN([C@H](CC2CC2)c2ccc([C@H](C)Nc3ncc4ccc(=O)n(C(C)C)c4n3)cc2)CC1 , kindly confirm whether its IC50 is beneath 40 nM.
satisfied

Regarding CC(C)[C@H](C)n1c(=O)ccc2cnc(N[C@@H](C)c3ccc(CN4C[C@@H](C)O[C@@H](C)C4)c(F)c3)nc21 , kindly confirm whether its IC50 is beneath 40 nM.
satisfied

Regarding COC(=O)c1ccc([C@H](C)Nc2ncc3ccc(=O)n(Cc4ccc(F)cc4)c3n2)cc1 , kindly confirm whether its IC50 is beneath 40 nM.
not satisfied

Others:
Regarding C[C@H](Nc1ncc2ccc(=O)n(CC(C)(C)C(F)(F)F)c2n1)c1ccc(CN2CCC(F)(F)CC2)cc1 , kindly confirm whether its IC50 is beneath 40 nM.
not satisfied

Regarding C=CC(=O)N1CCN(C(CC2CC2)c2ccc([C@H](C)Nc3ncc4ccc(=O)n(CC)c4n3)cc2)CC1 (stereo partly drawn) , kindly confirm whether its IC50 is beneath 40 nM.
satisfied

Regarding CC(C)(C)Cn1c(=O)ccc2cnc(NC3(c4ccccc4)CCC3)nc21 , kindly confirm whether its IC50 is beneath 40 nM.
not satisfied

Regarding CC[C@H](C)n1c(=O)ccc2cnc(N[C@@H](C)c3ccc(CN4CCCC(F)(F)C4)cc3)nc21 , kindly confirm whether its IC50 is beneath 40 nM.
not satisfied

Regarding CC(C)[C@H](C)n1c(=O)ccc2cnc(N[C@@H](C)c3ccc(N4CCN(C(=O)OCc5ccccc5)CC4)c(F)c3)nc21 , kindly confirm whether its IC50 is beneath 40 nM.
satisfied

Regarding C[C@H](Nc1ncc2ccc(=O)n(CC3CCCCC3)c2n1)c1ccc(CN2CCC(F)(F)CC2)cc1 , kindly confirm whether its IC50 is beneath 40 nM.
not satisfied

Regarding C=CC(=O)N1CCN([C@@H](CC)c2ccc([C@H](C)Nc3cc4c(ccc(=O)n4CC)cn3)cc2)CC1 , kindly confirm whether its IC50 is beneath 40 nM.
satisfied

----------
pIC50 listing for selected compounds.
biological target: IDH1^R132H homodimer enzyme (Homo sapiens, UniProt O75874, R132H); assay: NADPH depletion assay, IDH1 R132H
Sequence (O75874 whole entry R132H): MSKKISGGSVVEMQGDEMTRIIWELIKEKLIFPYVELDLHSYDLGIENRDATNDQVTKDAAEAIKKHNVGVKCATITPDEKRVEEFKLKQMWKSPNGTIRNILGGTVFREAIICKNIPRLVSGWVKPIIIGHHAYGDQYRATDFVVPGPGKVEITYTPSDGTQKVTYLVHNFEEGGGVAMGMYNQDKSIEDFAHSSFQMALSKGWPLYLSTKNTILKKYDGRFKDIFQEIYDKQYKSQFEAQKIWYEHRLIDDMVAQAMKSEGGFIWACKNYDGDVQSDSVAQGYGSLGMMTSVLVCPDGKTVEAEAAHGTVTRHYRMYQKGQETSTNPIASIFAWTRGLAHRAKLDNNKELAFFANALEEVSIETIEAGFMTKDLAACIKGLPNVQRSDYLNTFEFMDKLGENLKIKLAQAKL
Remember, pIC50 is on a log scale: it is -log10 of the molar concentration.

Name the reported pIC50 value associated with the compound CC(C)Cn1c(=O)ccc2cnc(N[C@@H](C)c3ccc(CN4CCC(F)(F)CC4)cc3)nc21 [cpd 104]
6.56

Name the reported pIC50 value associated with the compound C[C@H](Nc1ncc2ccc(=O)n(CC(C)(C)C)c2n1)c1ccc(C(=O)NC2CCC(F)(F)CC2)c(F)c1
6.95

Switching to the query record.
Name the reported pIC50 value associated with the compound C[C@H](Nc1ncc2ccc(=O)n(CC(C)(C)C)c2n1)c1ccc(Br)cc1
6.66

----------
biological target: IDH1^R132C (Homo sapiens, UniProt O75874, R132C); experiment: NADPH depletion assay, IDH1 R132C
IC50 listing for selected compounds.
Numbers only here, please. The scale is nM.

// worked examples, IC50 included
Name the reported IC50 value associated with the compound CC(C)(C)Cn1c(=O)ccc2cnc(NC3(c4ccccc4)CC3)nc21 [cpd 42]
951

Name the reported IC50 value associated with the compound C=CC(=O)N1CCC(Oc2ccc([C@H](C)Nc3ncc4ccc(=O)n([C@@H](C)C(C)C)c4n3)cc2)CC1 [cpd 159]
37

Name the reported IC50 value associated with the compound C=CC(=O)N1CCN([C@@H](CC)c2ccc([C@H](C)Nc3cc4c(ccc(=O)n4C(C)C)cn3)cc2)CC1 [cpd 239]
2

Name the reported IC50 value associated with the compound C[C@H](Nc1ncc2ccc(=O)n(Cc3ccc(O)cc3)c2n1)c1ccc(Cl)cc1 [cpd 72]
1240

Name the reported IC50 value associated with the compound COC(=O)c1ccc([C@H](C)Nc2ncc3ccc(=O)n(C(C)C)c3n2)cc1 [cpd 9]
604

Others:
Name the reported IC50 value associated with the compound C=CC(=O)N1CCN([C@@H](CC)c2ccc([C@H](C)Nc3ncc4ccc(=O)n(C(C)C)c4n3)cc2)CC1 [cpd 227]
5

Name the reported IC50 value associated with the compound C[C@H](Nc1ncc2ccc(=O)n(CC(C)(C)C)c2n1)c1cc2cc(Cl)ccc2[nH]c1=O [cpd 50]
38

Name the reported IC50 value associated with the compound C[C@H](Nc1ncc2ccc(=O)n(CC(F)(F)F)c2n1)c1ccc(CN2CCC(F)(F)CC2)cc1 [cpd 106]
667

Name the reported IC50 value associated with the compound C[C@H](Nc1ncc2ccc(=O)n(CC(C)(C)C#N)c2n1)c1ccc2ccccc2c1 [cpd 129]
98

Name the reported IC50 value associated with the compound C[C@H](Nc1ncc2ccc(=O)n(Cc3ccc(F)cc3F)c2n1)c1ccc(Cl)cc1 [cpd 25]
524

----------
Molecular target: IDH1^R132C (Homo sapiens, UniProt O75874, R132C)
Assay: NADPH depletion assay, IDH1 R132C
Protocol: IDH mutated enzyme activity converting alpha-ketoglutarate to 2-hydroxyglutaric acid is measured using a NADPH depletion assay. In the assay the remaining cofactor is measured at the end of the reaction with the addition of a catalytic excess of diaphorase and resazurin, to generate a fluorescent signal in proportion to the amount of NADPH remaining. […]
So basically every entry gets a class from its IC50, ranges being bottom range: < 90 nM; center range: ≥ 90 nM and < 400 nM; top range: ≥ 400 nM

Class? Entry: C=CC(=O)N1CCN([C@@H](CC2CC2)c2ccc(C3(Nc4ncc5ccc(=O)n(C(C)C)c5n4)CC3)cc2)CC1 (single isomer, unassigned) [cpd 246]
bottom range

Class? Entry: C[C@H](Nc1ncc2ccc(=O)n(Cc3c(F)cccc3F)c2n1)c1ccc(CN2CCC(F)(F)CC2)cc1 [cpd 99]
center range

Others:
Class? Entry: CCOC(=O)C(C)n1c(=O)ccc2cnc(N[C@@H](C)c3ccc(CN4CCCC(F)(F)C4)cc3)nc21 (some centres unmarked) [cpd 63]
center range

Class? Entry: C=CC(=O)N1CCN(c2ccc([C@H](C)Nc3ncc4ccc(=O)n([C@@H](C)C(C)C)c4n3)cn2)CC1 [cpd 181]
center range

Class? Entry: C=CC(=O)N1CCN(Cc2ccc([C@H](C)Nc3nc(OCC)c4ccc(=O)n(CC(C)(C)C)c4n3)cc2)CC1 [cpd 201]
center range

Class? Entry: C[C@H](Nc1ncc2ccc(=O)n(CC(C)(C)C)c2n1)c1ccc(-c2cnn(C)c2)cc1 [cpd 130]
center range

Class? Entry: COc1ccc(Cn2c(=O)ccc3cnc(N[C@@H](C)c4ccc(Cl)cc4)nc32)cc1 [cpd 21]
top range

Class? Entry: C=CC(=O)N1CCN(Cc2ccc([C@H](C)Nc3ncc4ccc(=O)n(CC)c4n3)cc2)C[C@@H]1C [cpd 211]
top range

Class? Entry: C=CC(=O)N1CCN([C@H](CC)c2ccc(C3(Nc4ncc5ccc(=O)n(C(C)C)c5n4)CC3)cc2)CC1 (single isomer, unassigned) [cpd 248]
bottom range

Class? Entry: C=CC(=O)N1CCN(Cc2ccc([C@H](C)Nc3ncc4ccc(=O)n(CC(C)(C)C)c4n3)cc2F)CC1 [cpd 141]
bottom range

Class? Entry: C[C@H](Nc1ncc2ccc(=O)n(CC(C)(C)C)c2n1)c1ccc(CN2CCN(C(=O)C3CC3)CC2)cc1 [cpd 158]
bottom range

Class? Entry: C=CC(=O)N1CCN(C(CC)c2ccc([C@H](C)Nc3ncc4ccc(=O)n(C)c4n3)cc2)CC1 (some centres unmarked) [cpd 215]
bottom range

Class? Entry: C=CC(=O)N1CC=C(c2ccc([C@H](C)Nc3ncc4ccc(=O)n([C@@H](C)C(C)C)c4n3)nc2)CC1 [cpd 194]
center range

Class? Entry: CC(C)[C@H](C)n1c(=O)ccc2cnc(N[C@@H](C)c3ccc(C4=CCN(C(=O)C5CC5)CC4)cn3)nc21 [cpd 195]
center range

----------
pIC50 listing for selected compounds.
target: IDH1^R132H homodimer enzyme (Homo sapiens, UniProt O75874, R132H); assay: NADPH depletion assay, IDH1 R132H
Remember, pIC50 is on a log scale: it is -log10 of the molar concentration.

Name the reported pIC50 value associated with the compound C[C@H](Nc1ncc2ccc(=O)n(CCF)c2n1)c1ccc(Cl)cc1
5.31

Name the reported pIC50 value associated with the compound Cc1cc(=O)n(CC(C)(C)C)c2nc(N[C@@H](C)c3ccc(CN4CCCC(F)(F)C4)cc3)ncc12
6.47

Others:
Name the reported pIC50 value associated with the compound C[C@H](Nc1ncc2ccc(=O)n(Cc3c(F)cccc3F)c2n1)c1ccc(C(=O)NC2CCOCC2)cc1
6.05

Name the reported pIC50 value associated with the compound CC(C)Cn1c(=O)ccc2cnc(N[C@@H](C)c3ccc(Cl)cc3)nc21
6.39

Name the reported pIC50 value associated with the compound C=CC(=O)N1CCC(NC(=O)c2ccc([C@H](C)Nc3ncc4ccc(=O)n(C(C)C)c4n3)cc2F)CC1
6.64

Name the reported pIC50 value associated with the compound C=CC(=O)N1CCN(Cc2ccc([C@H](C)Nc3ncc4ccc(=O)n(CCN=[N+]=[N-])c4n3)cc2)CC1
6.99

Name the reported pIC50 value associated with the compound CC(C)n1c(=O)ccc2cnc(N[C@@H](C)c3ccc(CN4CCCC(F)(F)C4)cc3)nc21
6.78
